- Tested on: Bmi-1 protein
- procedureText: Sandwich ELISA Assay: Bmi-1 protein level in HT-1080 cells treated with test compounds
- Assay type: cell-based
Measured EC50 of individual entries
endpointName: EC50

compound="Cc1nc2ccc(F)cc2n1-c1nc(N)nc(Nc2ccc(Cl)cc2)n1 [Cpd 166]" endpointname=EC50 result="10 to 100 nM"
compound="CCCc1nc2ccccc2n1-c1nc(N)nc(Nc2ccc(C(F)(F)F)cc2)n1 [Cpd 127]" endpointname=EC50 result="100 to 3000 nM"
compound="CCc1nc2ccccc2n1-c1nc(N)nc(Nc2ccc(Cl)cc2)n1 [Cpd 162]" endpointname=EC50 result="10 to 100 nM"
compound="COc1ccc(Nc2nc(N)nc(-n3c(C)nc4c(F)cccc43)n2)cc1 [Cpd 179]" endpointname=EC50 result="1 to 10 nM"
compound="Nc1nc(Nc2ccc(OC(F)F)cc2)nc(-n2c(C3CC3)nc3ccc(F)cc32)n1 [Cpd 63]" endpointname=EC50 result="10 to 100 nM"
compound="CCc1nc2cc(F)ccc2n1-c1nc(N)nc(Nc2ccc(Br)cc2)n1 [Cpd 221]" endpointname=EC50 result="10 to 100 nM"
compound="Cc1nc2ccc(F)cc2n1-c1nc(N)nc(Nc2ccc(C(F)(F)F)nc2)n1 [Cpd 53]" endpointname=EC50 result="10 to 100 nM"
compound="Nc1nc(Nc2ccc(OC(F)(F)F)cc2)nc(-n2c(C3CC3)nc3ccccc32)n1 [Cpd 225]" endpointname=EC50 result="100 to 3000 nM"
compound="Cc1nc2cc(F)c(F)cc2n1-c1nc(N)nc(Nc2ccc(OC(F)F)cc2)n1 [Cpd 11]" endpointname=EC50 result="10 to 100 nM"
compound="Cc1nc2ncc(F)cc2n1-c1nc(N)nc(Nc2ccc(C(F)(F)F)cc2)n1 [Cpd 24]" endpointname=EC50 result="100 to 3000 nM"
compound="CCc1nc2ccc(F)cc2n1-c1nncc(Nc2ccc(C(F)(F)F)cc2)n1 [Cpd 131]" endpointname=EC50 result="100 to 3000 nM"
compound="Cc1nc2ccccc2n1-c1nc(N)nc(Nc2ccc(C(F)(F)F)cc2)n1 [Cpd 2]" endpointname=EC50 result="10 to 100 nM"
compound="CCc1nc2ccccc2n1-c1nnc(N)c(Nc2ccc(C(F)(F)F)cc2)n1 [Cpd 142]" endpointname=EC50 result="100 to 3000 nM"
compound="Fc1ccc2nc(C3CC3)n(-c3ncnc(Nc4ccc(C(F)(F)F)cc4)n3)c2c1 [Cpd 76]" endpointname=EC50 result="100 to 3000 nM"
compound="Fc1ccc2nc(C3CC3)n(-c3nncc(Nc4ccc(C(F)(F)F)cc4)n3)c2c1 [Cpd 132]" endpointname=EC50 result="10 to 100 nM"
compound="CCc1nc2c(F)cc(F)cc2n1-c1nc(N)nc(Nc2ccc(OC(F)F)c(F)c2)n1 [Cpd 50]" endpointname=EC50 result="10 to 100 nM"
compound="CCc1nc2cc(F)ccc2n1-c1nc(N)nc(Nc2ccc(OC(F)F)c(F)c2)n1 [Cpd 60]" endpointname=EC50 result="10 to 100 nM"
compound="Cc1nc2c(F)cc(F)cc2n1-c1nc(N)nc(Nc2ccc(C(F)(F)F)cc2)n1 [Cpd 46]" endpointname=EC50 result="100 to 3000 nM"
compound="FC(F)(F)c1ccc(Nc2cnnc(-n3c(C4CC4)nc4ccccc43)n2)cc1 [Cpd 101]" endpointname=EC50 result="10 to 100 nM"
compound="CCc1nc2cc(F)ccc2n1-c1nc(N)nc(Nc2ccc(Cl)cc2)n1 [Cpd 175]" endpointname=EC50 result="100 to 3000 nM"
compound="Nc1nc(Nc2ccc(OC(F)F)c(F)c2)nc(-n2c(C3CC3)nc3ccccc32)n1 [Cpd 44]" endpointname=EC50 result="10 to 100 nM"
compound="Nc1nc(Nc2ccc(C(F)(F)F)cc2)nc(-c2c(C(F)(F)F)nc3ccc(F)cn23)n1 [Cpd 25]" endpointname=EC50 result="10 to 100 nM"
compound="Cc1nc2ccccc2n1-c1nc(N)nc(Nc2ccc(C#N)cc2)n1 [Cpd 151]" endpointname=EC50 result="100 to 3000 nM"
compound="CCc1nc2ccccc2n1-c1nc(N)nc(Nc2ccc(C)cc2)n1 [Cpd 160]" endpointname=EC50 result="1 to 10 nM"
